Biological target: GST-tagged KRAS G12D (2-169) (Homo sapiens, UniProt P01116, G12D)
Construct: GST-tagged KRAS^G12D (2-169, Reaction Biology, MSC-11-539); MSC-11-502 (SOS1cat)
Sequence (P01116 2-169 isoform P01116-2 G12D): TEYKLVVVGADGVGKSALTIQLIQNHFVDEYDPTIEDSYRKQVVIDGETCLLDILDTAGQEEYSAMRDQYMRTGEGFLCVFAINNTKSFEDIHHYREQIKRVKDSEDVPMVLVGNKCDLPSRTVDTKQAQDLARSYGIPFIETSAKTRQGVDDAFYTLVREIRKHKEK
Test: Nucleotide exchange assay (NEA), HTRF of SOS-mediated GTP-DY-647P1 binding
Conditions: 5 nM GST-KRAS G12D, 20 nM SOScat, 150 nM GTP; compound 1 h at RT
pIC50: −log10 of the molar value.
pIC50 by entry:

Oc1ccc2c(c1)C1(CCC2)Cc2nc(OC[C@@]34CCCN3C[C@H](F)C4)nc(N3CCCC(O)CC3)c2CO1 (stereo partly drawn) = 4.70 to 6.00
CN(C)C(=O)c1nn2c(c1Cl)CN(c1nc(OC[C@@]34CCCN3C[C@H](F)C4)nc3c1COC1(CCc4ccc(C(F)F)cc41)C3)CCC2 (stereo partly drawn) = 6.00 to 7.00
Cc1nnc(-c2nn3c(c2Cl)CN(c2nc(OC[C@@]45CCCN4C[C@H](F)C5)nc4c2CN(C)[C@@]2(CCCc5ccccc52)C4)CCC3)n1C = > 8.00
CN(C)C(=O)c1nn2c(c1Cl)CN(c1nc(OC[C@@]34CCCN3C[C@H](F)C4)nc3c1CO[C@@]1(CCc4c(Cl)cccc41)C3)CCC2 = > 8.00
CN(C)C(=O)c1nn2c(c1Cl)CN(c1nc(OCC3(CN4CCOCC4)CC3)nc3c1CN(C)[C@@]1(CCCc4ccccc41)C3)CCC2 = > 8.00
N#CC1CCCN(c2nc(OC[C@@]34CCCN3C[C@H](F)C4)nc3c2COC2(CCc4c(Cl)cccc42)C3)CC1 (stereo partly drawn) = 4.70 to 6.00
F[C@H]1CN2CCC[C@@]2(COc2nc3c(c(N4CCCCCC4)n2)COC2(CCCc4c(Br)cccc42)C3)C1 (stereo partly drawn) = 4.70 to 6.00
CN(C)C(=O)c1nn2c(c1Cl)CN(c1nc(OC[C@@]34CCCN3C[C@H](F)C4)nc3c1CN(C)[C@@]1(CCc4c(Cl)cccc41)C3)CCC2 = > 8.00
CN(C)C(=O)c1nn2c(c1Cl)CN(c1nc(OCC3(CN4CCOCC4)CC3)nc3c1CO[C@@]1(CCc4c(Cl)cccc41)C3)CCC2 = > 8.00
CN(C)C(=O)c1nn2c(c1C#N)CN(c1nc(OC[C@@]34CCCN3C[C@H](F)C4)nc3c1CN(C)[C@@]1(CCc4cccc(F)c41)C3)CCC2 = > 8.00

// pIC50 value for Cc1c(C(=O)N(C)C)nn2c1CN(c1nc(OC[C@@]34CCCN3C[C@H](F)C4)nc3c1CO[C@@]1(CCc4c(Cl)cccc41)C3)CCC2 : > 8.00

// pIC50 value for CN1Cc2c(nc(OC[C@@]34CCCN3C[C@H](F)C4)nc2N2CCC[C@]3(C2)NC(=O)NC3=O)C[C@]12CCCc1ccccc12 : 6.00 to 7.00

// pIC50 value for F[C@H]1CN2CCC[C@@]2(COc2nc3c(c(N4CCCCCC4)n2)COC2(CCCc4ccccc42)C3)C1 (stereo partly drawn) : 4.70 to 6.00

// pIC50 value for N=S1(=O)CCN(C(=O)c2nn3c(c2Cl)CN(c2nc(OC[C@@]45CCCN4C[C@H](F)C5)nc4c2CO[C@@]2(CCc5c(Cl)cccc52)C4)CCC3)CC1 : > 8.00

// pIC50 value for CCN1Cc2c(nc(OC[C@@]34CCCN3C[C@H](F)C4)nc2N2CCCn3nc(C(=O)N(C)C)c(Cl)c3C2)C[C@]12CCCc1ccccc12 : 7.00 to 8.00
